Where do the numbers come from? From ChEMBL document CHEMBL1201862.

- Tested on: SF-295
- assay-protocol: NCI tumour cell line growth inhibition, 48 h
Active and inactive are the calls of the source. No stated cut-off is given here; in the data, active = GI50 up to about 1.1 µM and inactive = higher.
Returns: one label drawn from active, inactive

Study these solved cases before continuing.
| compound | cat |
| --- | --- |
| O=C1c2ccccc2C(=O)c2c(NC(=O)C(Cl)CCl)cccc21 (stereo not given) | inactive |
| O=C1CCCN(c2ccccc2)N1 | inactive |
| CCOC(=O)/C(C(=O)c1ccc[nH]1)=C1/CCCN1C | inactive |
| COc1ccc(OC)c(C(=O)c2cccc(C(=O)c3cc(OC)ccc3OC)n2)c1 | inactive |

# fetch the recorded call for O=C1NNC(=O)c2ccccc2SSc2ccccc2C(=O)NNC(=O)c2ccccc2SSc2ccccc21 here
inactive

Could you check what this test reported for CCOC(=O)Oc1c(OC)cc(C(=O)NC2CCc3cc(OC)c(OC)c(OC)c3-c3ccc(SC)c(=O)cc32)cc1OC (stereo not given) ?
active

Name the outcome recorded for CCOC(=O)C1=CC(C)(C(=O)OCC)Nc2c(nc(SC)n(C)c2=O)N1 (stereo not given) in the assay.
inactive

Can you look up the reported call for O=C(O)C(F)(F)C(F)(F)C(F)(F)C(F)(F)C(=O)O for me?
inactive

// param item: N#Cc1c(Cl)nc2ccccc2c1N=[N+]=[N-] ; yields the recorded call
inactive

Look up the recorded call for Cc1cc(NS(=O)(=O)c2ccc(NC(=O)c3cccc4c(Nc5ccc(S(=O)(=O)Nc6cc(C)on6)cc5)c5ccc(Cl)cc5nc34)cc2)no1 in this test.
inactive

---

- Tested on: OVCAR-3
- assay-protocol: NCI tumour cell line growth inhibition, 48 h
Activity calls are given as the source filed them. Rule as the data show it: active = GI50 up to about 1.1 µM and inactive = higher.
Hi there, use one of these labels in your reply, thanks! active, inactive

Use these answered entries as a reference point.
| compound | cat |
| --- | --- |
| CC1(C)C(O)c2ccccc2OC1N1CCN(C2Oc3ccccc3C(O)C2(C)C)CC1 (stereo not given) | inactive |
| N#CC1(C#N)NC(c2ccccc2)C(C#N)(C#N)NC1c1ccccc1 (stereo not given) | inactive |

Then this compound:
What did the test return for CCCCCCCCCCCCCCCCNc1ccn(C2CC(OP(=O)(O)OCC3OC(n4cc(CC)c(=O)[nH]c4=O)CC3O)C(CO)O2)c(=O)n1 (stereo not given) ?
inactive

---

- System: COLO 205
- assay-protocol: NCI tumour cell line growth inhibition, 48 h
Activity calls are given as the source filed them. Rule as the data show it: active = GI50 up to about 1.1 µM and inactive = higher.
parameter: GI50

Take a look at these entries with their results.
| molecule | GI50 |
| --- | --- |
| [N-]=[N+]=Nc1ccccc1Oc1ccccc1 | > 100 µM (inactive) |
| CC1=C(c2cc(C(=O)Nc3ccc(Cl)cc3)nc(S)n2)Sc2ccccc2N1 | > 100 µM (inactive) |
| CCOC(=O)c1sc2ncnc(N)c2c1C | 19.6 µM (inactive) |
| O=C1OC(c2ccccc2)(c2ccccc2)c2ccc3ccc(F)cc3c21 | > 100 µM (inactive) |
| O=c1ccn([C@@H]2C[C@H](CO)C[S+]([O-])C2)c(=O)[nH]1 (stereo partly specified) | > 100 µM (inactive) |

We now examine a further molecule.
Using known records, supply GI50 for NCCCNCCSP(=O)(O)O [AMIFOSTINE]
385 µM (inactive)

---

GI50 overview
- Test system: OVCAR-4
- assay-protocol: NCI tumour cell line growth inhibition, 48 h
Active and inactive are the calls of the source. Rule as the data show it: active = GI50 up to about 1.1 µM and inactive = higher.

Please indicate GI50 recorded for C=C1C2Oc3ccccc3C1N(c1ccccc1)O2 (centres undefined)
20 µM (inactive)

Give the reported value of GI50 for this record: CN(C)CCCCN1c2ccccc2Sc2ccc(C(=O)c3ccccc3)cc21
3.23 µM (inactive)

Give recorded GI50. CCN(CC)CC1CCCCN1CC(=O)N1c2ccccc2C(=O)Nc2cccnc21 (centres undefined)
38.9 µM (inactive)

Query GI50 for Cc1cccc(NC2=NC(=O)C(CC(=O)Nc3ccc(Cl)cc3C)S2)c1 (centres undefined)
> 100 µM (inactive)

Return GI50 for the following molecule: O=C(O)C(F)(F)C(F)(F)C(F)(F)C(F)(F)C(=O)O
> 100 µM (inactive)
